Values from patent EP4122499A1

molecular target: Human recombinant FAP (Homo sapiens); experiment: Surface plasmon resonance assay (Biacore T200, single cycle kinetics); type: binding; conditions: SPR, 25°C, 1:1 Langmuir binding model
Sequence (Q12884 whole entry): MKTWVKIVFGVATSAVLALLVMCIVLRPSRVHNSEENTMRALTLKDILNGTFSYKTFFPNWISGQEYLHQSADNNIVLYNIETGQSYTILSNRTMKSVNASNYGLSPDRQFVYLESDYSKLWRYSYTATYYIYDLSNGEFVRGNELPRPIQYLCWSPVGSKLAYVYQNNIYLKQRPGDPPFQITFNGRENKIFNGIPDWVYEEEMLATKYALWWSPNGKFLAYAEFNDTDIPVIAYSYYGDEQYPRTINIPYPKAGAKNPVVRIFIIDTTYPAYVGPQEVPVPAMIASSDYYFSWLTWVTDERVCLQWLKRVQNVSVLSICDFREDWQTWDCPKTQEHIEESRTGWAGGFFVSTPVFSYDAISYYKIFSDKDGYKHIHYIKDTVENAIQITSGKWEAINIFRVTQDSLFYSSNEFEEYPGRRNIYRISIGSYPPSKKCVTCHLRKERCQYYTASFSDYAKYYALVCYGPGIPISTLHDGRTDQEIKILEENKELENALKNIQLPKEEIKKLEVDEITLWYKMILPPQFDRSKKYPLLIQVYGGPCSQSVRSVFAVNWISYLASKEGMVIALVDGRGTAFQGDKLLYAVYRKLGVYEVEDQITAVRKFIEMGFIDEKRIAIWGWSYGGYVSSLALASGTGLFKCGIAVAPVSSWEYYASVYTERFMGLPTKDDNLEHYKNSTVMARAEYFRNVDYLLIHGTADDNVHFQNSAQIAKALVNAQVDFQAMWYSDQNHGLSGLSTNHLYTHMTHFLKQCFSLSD

{"Molecule": "O=C(O)CN1CCN(CC(=O)O)CCN(CC(=O)N2CCN(CCCOc3ccc4nccc(C(=O)NCC(=O)N5CCC[C@H]5C(=O)c5nc6ccccc6o5)c4c3)CC2)CCN(CC(=O)O)CC1 [drawing 357]", "Rel": ">", "pKD (Biacore)": 11}
{"Molecule": "O=C(O)CN1CCN(CC(=O)O)CCN(CC(=O)N2CCN(CCNC(=O)c3ccc(-c4ccc5nccc(C(=O)NCC(=O)N6C[C@@H](F)C[C@H]6C(=O)c6nc7ccccc7o6)c5c4)cc3)CC2)CCN(CC(=O)O)CC1 [drawing 360]", "Rel": "=", "pKD (Biacore)": 9}
{"Molecule": "O=C(O)CN1CCN(CC(=O)O)CCN(CC(=O)N2CCN(CCNC(=O)c3cccc(-c4ccc5c(C(=O)NCC(=O)N6CCC[C@H]6C(=O)c6nc7ccccc7o6)ccnc5c4)c3)CC2)CCN(CC(=O)O)CC1 [drawing 352]", "Rel": ">", "pKD (Biacore)": 11}
{"Molecule": "O=C(O)CN1CCN(CC(=O)O)CCN(CC(=O)NCCCNC(=O)c2ccc(-c3ccc4nccc(C(=O)NCC(=O)N5CCC[C@H]5C(=O)c5nc6ccccc6o5)c4c3)cc2)CCN(CC(=O)O)CC1", "Rel": "=", "pKD (Biacore)": 10.3}
{"Molecule": "O=C(O)CN1CCN(CC(=O)O)CCN(CC(=O)NCCCS(=O)(=O)c2ccc(-c3ccc4nccc(C(=O)NCC(=O)N5CCC[C@H]5C(=O)c5nc6ccccc6o5)c4c3)cc2)CCN(CC(=O)O)CC1 [drawing 317]", "Rel": ">", "pKD (Biacore)": 11}
{"Molecule": "CN(CCCN1CCN(C(=O)CN2CCN(CC(=O)O)CCN(CC(=O)O)CCN(CC(=O)O)CC2)CC1)c1ccc2nccc(C(=O)NCC(=O)N3CC(F)(F)C[C@H]3C#N)c2c1", "Rel": ">", "pKD (Biacore)": 11}
{"Molecule": "O=C(O)CN1CCN(CC(=O)O)CCN(CC(=O)N2CCN(CCCOc3ccc4nccc(C(=O)NCC(=O)N5C[C@@H](F)C[C@H]5C(=O)c5nc6ccccc6o5)c4c3)CC2)CCN(CC(=O)O)CC1 [drawing 358]", "Rel": ">", "pKD (Biacore)": 11}
{"Molecule": "N#C[C@@H]1CCCN1C(=O)CNC(=O)c1ccnc2ccc(-c3ccc(C(=O)NCCCNC(=O)CN4CCN(CC(=O)O)CCN(CC(=O)O)CCN(CC(=O)O)CC4)cc3)cc12", "Rel": "=", "pKD (Biacore)": 10.2}
{"Molecule": "N#C[C@@H]1CC(F)(F)CN1C(=O)CNC(=O)c1ccnc2ccc(-c3ccc(C(=O)NCCN4CCN(C(=O)CN5CCN(CC(=O)O)CCN(CC(=O)O)CCN(CC(=O)O)CC5)CC4)nc3)cc12", "Rel": ">", "pKD (Biacore)": 11}
{"Molecule": "N#C[C@@H]1CC(F)(F)CN1C(=O)CNC(=O)c1cc[n+]([O-])c2ccc(OCCCN3CCN(C(=O)CN4CCN(CC(=O)O)CCN(CC(=O)O)CCN(CC(=O)O)CC4)CC3)cc12", "Rel": "=", "pKD (Biacore)": 9.8}
{"Molecule": "N#C[C@@H]1CC(F)(F)CN1C(=O)CNC(=O)c1ccnc2ccc(-c3ccc(C(=O)NCCCNC(=O)CN4CCN(CC(=O)O)CCN(CC(=O)O)CCN(CC(=O)O)CC4)nc3)cc12", "Rel": ">", "pKD (Biacore)": 11}
{"Molecule": "O=C(O)CN1CCN(CC(=O)O)CCN(CC(=O)N2CCN(CCNC(=O)c3ccc(-c4ccc5nccc(C(=O)NCC(=O)N6CCC[C@H]6C(=O)c6nc7ccccc7o6)c5c4)cc3)CC2)CCN(CC(=O)O)CC1 [drawing 354]", "Rel": "=", "pKD (Biacore)": 9.1}
